viability increase values, listed per item
test.description: viability gain of MRP-1-high H69AR cells under doxorubicin, pilot screen, MRP-1 activator project, CellTiter-Glo, duplicate (AID 807);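 also: compound pretreatment 18-22 h then 72 h combined with doxorubicin; 0% = doxorubicin alone and 100% = vehicle without doxorubicin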
experimental.context: H69AR viability with doxorubicin, CellTiter-Glo luminescence; at 10 µM; hits give high values
Could you give me the number in %? Just the number is fine.

Reference set, count: 5
Please report the recorded viability increase for COCCCNC(=O)Cn1ncc2ccsc2c1=O .
1.3

Now try CC(=O)c1ccc(NC(=O)C2CCCN2S(=O)(=O)c2cccc3cccnc23)cc1 (stereo unspecified) .
-1.7

Now try CCOCCn1c(SCc2ccccc2)nc2c1c(=O)[nH]c(=O)n2C .
-1.41

Now try COc1ccc(NC(=O)Nc2ccc(OCC(=O)N3CCOCC3)cc2)cc1OC .
-2.34

Now try COCCCNC(=O)c1ccccc1Oc1ccccc1 .
-1.39

Further cases:
Please report the recorded viability increase for Cc1cc(=O)[nH]c(SCc2cc(Cl)ccc2OC(F)F)n1 .
-1.54

Now try Cc1ccc(C)c(C(=O)N(Cc2nc(-c3ccc(Cl)cc3)no2)C(C)C)c1 .
-0.54

Now try CCc1cc(C(=O)Cc2cnn(-c3ccccc3)c2)c(O)cc1O .
-2.95

Now try CN1C(=O)NC(c2ccccc2)C2=C1CN(Cc1ccco1)C2=O (stereo unspecified) .
-2.48

Now try CCc1ccc(NS(=O)(=O)c2cc(OC)ccc2OC)cc1 .
-3.77

Now try CCN(CC)C(=O)Nc1cnc2ccccc2c1 .
-2.72

----------
test.description: OD615 S. cerevisiae growth inhibition, permissive medium, pilot counter-assay, permissive growth control for S. cerevisiae lifespan shortening project (AID 705)
experimental.context: OD615, 24 h, at 10 µM, hits give high values
growth inhibition values, listed per item
Could you give me the number in %? Just the number is fine.

Please report the recorded growth inhibition for CC(C)Oc1ccc(N2CC(C(=O)Nc3ccc4c(c3)OCO4)CC2=O)cc1 (stereo not drawn) .
-13.3

Now try COC(=O)C1(C)NC(=O)c2ccccc2N1 (stereo not drawn) .
-6.57

Now try Cc1cc(C(=O)NCc2ccc3c(c2)OCO3)n(-c2ccccc2)n1 .
-8.49

--- query ---
Please report the recorded growth inhibition for COc1ccccc1NC(=O)c1cccc(S(=O)(=O)N2CCOCC2)c1 .
7.87

----------
test.description: RAM signaling pathway blockade in yeast – S. cerevisiae, Pdr1DBD-CYC8 efflux-inhibited sensitized strain, primary screen (AID 1298);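 also: 0% = DMSO untreated cells without growth and 100% = 10 µM 1-NA-PP1 full growth; higher means more yeast growth rescued from 5-FOA killing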
experimental.context: S. cerevisiae cbk1-as DSE1-URA3 strain, 5-FOA growth OD615, 2 d; at 50 µM; hits give high values
recorded.endpoint: RAM network inhibition (%)
Could you give me the number in %? Just the number is fine.

Reference set, count: 5
Please report the recorded RAM network inhibition for O=C(C1CCC(=O)N1Cc1cccnc1)N1CCN(c2ccc(F)cc2)CC1 (stereo not drawn) .
5.89

Now try CCOC(=O)N1CCC(NC(=O)C2CCCN(Cc3nc(-c4cccc(Cl)c4)oc3C)C2)CC1 (stereo not drawn) .
3.95

Now try N#CCCCSc1nnc(-c2ccc(Cl)cc2)n1-c1ccccc1 .
4.2

Now try O=C1C2C(c3ccccc3)C=CC(c3ccccc3)C2C(=O)N1CCO (stereo not drawn) .
4.03

Now try CC1CN(c2cc(=O)n(Cc3ccc(F)cc3)c(=O)[nH]2)CC(C)O1 (stereo not drawn) .
-0.24

Further cases:
Please report the recorded RAM network inhibition for Cc1cc(-n2nc(C)cc2C)nc(NS(=O)(=O)c2ccccc2)n1 .
4.2

Now try Cn1c(Cn2c(=O)sc3ccccc32)nnc1SCC(=O)NC1CCCC1 .
3.56

Now try CCCCS(=O)CC(COc1ccc(Cl)cc1)OC(=O)c1ccccc1 (stereo not drawn) .
5.86

Now try NC(=O)c1cc(N2C(=O)C3CC=CCC3C2=O)ccc1N1CCCCC1 (stereo not drawn) .
4.2

Now try Cn1nc(-c2ccc(Cl)cc2)c2cc(C(=O)N3CCOCC3)sc21 .
3.38

Now try Cc1ccc(-c2nn3c(C)nnc3s2)cc1NC(=O)COc1ccc(Cl)cc1 .
6.41

Now try c1ccc2[nH]c(SCCN3CCOCC3)nc2c1 .
1.35

Now try Cc1c(/C=N/n2cnnc2)c2ccccc2n1C .
4.77
